- Tested on: SK-ES-1
- assay.protocol: relative viability vs DMSO control (72 h) (fraction); higher = more viable cells
- test.conditions: 3.333 µM
// classify: if (relative viability < 0.6) condition met else condition not met

Below are worked cases with known answers.
Threshold test, relative viability < 0.6: CN1CCN(CCOc2cc(OC3CCOCC3)c3c(Nc4c(Cl)ccc5c4OCO5)ncnc3c2)CC1
condition not met

Same again, this time with NC(=O)c1cccc2cn(-c3ccc([C@@H]4CCCNC4)cc3)nc12
condition met

Can you check Cc1cccc(-c2[nH]c(CNc3ccccc3F)nc2-c2ccc3ncnn3c2)n1 next?
condition not met

Would you kindly repeat that for Cc1cn(-c2cc(NC(=O)c3ccc(C)c(Nc4nccc(-c5cccnc5)n4)c3)cc(C(F)(F)F)c2)cn1 ?
condition met

Cool, now COc1cc2nccc(Oc3ccc(NC(=O)C4(C(=O)Nc5ccc(F)cc5)CC4)cc3)c2cc1OC [Cabozantinib]
condition met

Try this molecule too: CNC(=O)c1cc(Oc2ccc(NC(=O)Nc3ccc(Cl)c(C(F)(F)F)c3)cc2)ccn1
condition not met

Next:
Identify whether the molecule FC(F)(F)c1ccc(CNc2ccc(Cc3c[nH]c4ncc(Cl)cc34)cn2)cn1 records relative viability below 0.6.
condition not met
